- Test system: UACC-257 melanoma
- Procedure summary: NCI-60 one-dose screen, 48 h (100 = growth as untreated, 0 = no growth, -100 = all killed)
- Condition: 10 µM unless noted
This is part of a sample that, as a whole, favours compounds with a hit. Of some 83,000 tested, about 20% had one in any assay.
// boundary case: growth equal to 90% maps to 0.0; strictly smaller maps to 1.0

| Compound | Cat |
| --- | --- |
| CCOC(=O)c1c(NC(=S)Nc2ccc([N+](=O)[O-])cc2)sc2c1CCCCC2 | 1.0 |
| COc1cc2cc(Oc3ccc(NC(=O)Nc4ccc(F)c(C(F)(F)F)c4)cc3)c(C)nc2cc1OCCN1CCCCC1 | 1.0 |
| COc1ccc(C(c2cc(OC)c(OC)c(OC)c2)n2cncn2)cc1O (centres undefined) | 1.0 |
| C=C1/C(=C\C=C2/CCC[C@]3(C)[C@@H]([C@H](C)CCCC(C)(C)O)CC[C@@H]23)C[C@@H](OC(=O)CBr)C[C@@H]1O | 0.0 |
| c1ccc(-c2nc(N3CCNCC3)c3oc(-c4ccccc4)nc3n2)cc1 | 0.0 |
| CCOC(=O)c1cnc2sc(-c3ccc(OC)cc3)nc2c1Cl | 0.0 |
| Cc1nc2ccccc2c(/C=C/c2ccc(Br)cc2)c1C(=O)/C=C/c1ccccc1 | 1.0 |
| COc1ccc(NC(=O)c2ccc(NC3=C(c4ccc(Cl)cc4)C(=O)NC3=O)cc2)cc1 | 1.0 |
| CCN(CC)CCN1C(=O)c2c(c(C)c3c(oc4cc(OC)ccc43)c2C)C1=O | 0.0 |
